- TESTED_TARGET: TBK1 (Homo sapiens (Human))
- Sequence (Q9UHD2 whole entry): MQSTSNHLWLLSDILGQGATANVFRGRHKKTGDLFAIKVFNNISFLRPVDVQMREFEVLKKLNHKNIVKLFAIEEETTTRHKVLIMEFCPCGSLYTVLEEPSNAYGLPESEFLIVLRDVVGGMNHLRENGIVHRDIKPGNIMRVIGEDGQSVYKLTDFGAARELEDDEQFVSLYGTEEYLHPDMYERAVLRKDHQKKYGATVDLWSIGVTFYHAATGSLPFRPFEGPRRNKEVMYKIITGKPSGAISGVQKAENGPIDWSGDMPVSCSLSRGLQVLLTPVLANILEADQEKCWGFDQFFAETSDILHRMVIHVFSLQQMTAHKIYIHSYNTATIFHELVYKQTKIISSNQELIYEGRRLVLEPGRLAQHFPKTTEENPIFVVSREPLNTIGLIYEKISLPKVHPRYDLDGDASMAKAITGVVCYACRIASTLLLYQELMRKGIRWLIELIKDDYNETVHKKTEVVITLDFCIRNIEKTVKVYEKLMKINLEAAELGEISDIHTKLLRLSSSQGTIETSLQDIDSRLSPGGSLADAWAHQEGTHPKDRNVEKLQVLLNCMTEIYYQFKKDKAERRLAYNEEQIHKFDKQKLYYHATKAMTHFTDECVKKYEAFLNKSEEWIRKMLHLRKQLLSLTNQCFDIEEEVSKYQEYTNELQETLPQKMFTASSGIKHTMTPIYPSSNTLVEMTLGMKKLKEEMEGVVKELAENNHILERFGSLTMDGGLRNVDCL
- ASSAY_TEXT: TBK1 low ATP kinase assay (in vitro assay 1)
- Type: biochemical
- MEASUREMENT_SETUP: in vitro assay 1, read-out: TBK1 low ATP kinase assay IC50
Class field: derived from IC50; ranges class 0 = under 9 nM, class 1 = from 9 nM up to 100 nM, class 2 = 100 nM and over

molecule="CN(C)c1ccnc(-c2ccc3nc(Nc4cc(CN5CCN(C(=O)C6CC6)CC5)ccn4)[nH]c3c2)n1 [Example 181.03]" assigned_class="class 2"

Please turn your attention to the following entry.
Input line: Using the reported IC50, which band applies to CC(c1ccnc(Nc2nc3ccc(-c4cc(N5CC(C(F)(F)F)C5)ncn4)cc3[nH]2)c1)N1CCN(C(=O)C2(C(F)(F)F)CC2)CC1 (single isomer, unassigned) [Example 164.04] ?
Output line: class 0

The measurements presented in this section are drawn from patent US10894784B2.
